assay_remarks: Drug uptake in BALB/c mouse myocardium at 10 mg/kg, po administered via gavage every 24 hrs for 7 days measured 1 hr post last dose by LC-MS/MS analysis
Type: ADME, organism-based
condition_description: read-out: Drug uptake
concentration at 1 h: recorded values
Output spec: scalar in ng/mL, unitless text.

molecule	concentration at 1 h / ng/mL
FC1(F)CCC(C(CC2CCCCN2)C2CCCCC2)CC1 (configuration not stated)	3730

Q) Return reported concentration at 1 h; argument: C1CCC(C(CC2CCCCN2)C2CCCCC2)CC1 (racemic)
A) 664

###

Listed molecules paired with reported Kp
assay_remarks: Ratio of AUC (0 to 24 hrs) in myocardium to plasma in BALB/c mouse at 10 mg/kg, po administered via gavage every 24 hrs for 7 days measured post last dose by LC-MS/MS analysis
Format: ADME, organism-based
condition_description: myocardium and plasma, read-out: Ratio AUC

molecule	observed_measurement
FC1(F)CCC(C(CC2CCCCN2)C2CCCCC2)CC1 (configuration not stated)	8.6

Let us move to another entry and its Kp.
Q) # query: Kp of entry C1CCC(C(CC2CCCCN2)C2CCCCC2)CC1 (racemic)
A) 2.4

###

assay_remarks: Ratio of drug level in myocardium to plasma in BALB/c mouse at 10 mg/kg, po administered via gavage every 24 hrs for 7 days measured 8 hrs post last dose by LC-MS/MS analysis
Assay type: ADME, organism-based
condition_description: myocardium and plasma
The reader will find reported Kp at 8 h values listed item by item below.

molecule	measurement_type	observed_measurement
FC1(F)CCC(C(CC2CCCCN2)C2CCCCC2)CC1 (configuration not stated)	Kp at 8 h	9.5

Q) What measured Kp at 8 h goes with C1CCC(C(CC2CCCCN2)C2CCCCC2)CC1 (racemic) [PERHEXILINE] ?
A) 4.8

###

assay_remarks: Ratio of drug level in myocardium to plasma in Sprague-Dawley rat at 10 mg/kg, po administered via gavage every 24 hrs measured at 1 hr post dose by LC-MS/MS analysis
Assay type: ADME, organism-based
condition_description: myocardium and plasma
// Kp at 1 h lookup, one value per entry
Reply with just the number.

compound	Kp at 1 h
FC1(F)CCC(C(CC2CCCCN2)C2CCCCC2)CC1 (configuration not stated)	15.3

Q) Data request, read-out Kp at 1 h, for C1CCC(C(CC2CCCCN2)C2CCCCC2)CC1 (racemic) [PERHEXILINE]
A) 19

###

List of concentration at 4 h values.
assay_remarks: Drug uptake in BALB/c mouse myocardium at 10 mg/kg, po administered via gavage every 24 hrs for 7 days measured 4 hrs post last dose by LC-MS/MS analysis
Type: ADME, organism-based
condition_description: read-out: Drug uptake
Numbers only here, please. The scale is ng/mL.

compound	concentration at 4 h (ng/mL)
FC1(F)CCC(C(CC2CCCCN2)C2CCCCC2)CC1 (configuration not stated)	1880

Turning now to a further record.
Q) Name the recorded concentration at 4 h for C1CCC(C(CC2CCCCN2)C2CCCCC2)CC1 (racemic) .
A) 126

###

assay_remarks: Half life in Sprague-Dawley rat liver microsomes at 3 uM up to 45 mins in presence of NADPH by LC-MS/MS analysis
Type: ADME, microsome
measurement_type: half-life at 3 µM

molecule	half-life at 3 µM
C1CCC(C(CC2CCCCN2)C2CCCC2)CC1 (stereo not given)	19 min
C1CCC(C(CC2CCCCN2)C2CCOCC2)CC1 (stereo not given)	31 min
FC1(F)CCCC(C(CC2CCCCN2)C2CCCCC2)C1 (stereo not given)	35 min
C1CCC(C(C[C@@H]2CCCCN2)C2CCCCC2)CC1	11 min

Q) Which half-life at 3 µM is listed for FC1CCC(C(CC2CCCCN2)C2CCCCC2)CC1 (stereo not given) ?
A) 11 min

###

assay_target: Carnitine O-palmitoyltransferase 1, muscle isoform (Rattus norvegicus, UniProt Q63704)
Sequence (Q63704 whole entry): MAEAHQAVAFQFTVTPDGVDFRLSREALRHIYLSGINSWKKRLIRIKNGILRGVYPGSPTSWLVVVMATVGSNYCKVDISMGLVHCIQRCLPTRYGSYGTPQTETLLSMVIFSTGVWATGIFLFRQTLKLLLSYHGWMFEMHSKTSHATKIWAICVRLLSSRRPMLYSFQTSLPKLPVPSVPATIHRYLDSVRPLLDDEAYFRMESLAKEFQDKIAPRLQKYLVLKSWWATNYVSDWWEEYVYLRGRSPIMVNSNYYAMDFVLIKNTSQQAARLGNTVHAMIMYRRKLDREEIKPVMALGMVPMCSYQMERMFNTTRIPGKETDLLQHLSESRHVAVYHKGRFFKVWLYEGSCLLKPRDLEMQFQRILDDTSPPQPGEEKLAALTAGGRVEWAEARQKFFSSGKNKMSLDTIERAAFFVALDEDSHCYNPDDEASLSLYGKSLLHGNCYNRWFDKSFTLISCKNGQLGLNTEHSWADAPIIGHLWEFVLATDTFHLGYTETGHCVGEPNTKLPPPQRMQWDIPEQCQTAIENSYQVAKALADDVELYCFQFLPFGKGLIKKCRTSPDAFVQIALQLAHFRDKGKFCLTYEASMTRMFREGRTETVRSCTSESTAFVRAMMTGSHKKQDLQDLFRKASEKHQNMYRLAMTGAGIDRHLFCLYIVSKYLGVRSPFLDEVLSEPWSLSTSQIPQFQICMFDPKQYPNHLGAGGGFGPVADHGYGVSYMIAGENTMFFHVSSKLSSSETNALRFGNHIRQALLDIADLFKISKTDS
assay_remarks: Inhibition of Wistar rat heart mitochondrial CPT-1 assessed as reduction in conversion of palmitoyl CoA and L-carnitine into palmitoylcarnitine preincubated for 3 mins followed by L-carnitine and palmitoyl CoA addition measured for 3.5 mins by spectrophotometric analysis
IC50 overview
Write the value in µM as a bare number.

compound	IC50 (µM)
FC1(F)CCCC(C(CC2CCCCN2)C2CCCCC2)C1 (configuration not stated)	215
C1CCC(C(C[C@@H]2CCCCN2)C2CCCCC2)CC1	14

Pending compound:
Q) Consider the compound shown here: C1CCC(CC(C2CCCC2)C2CCCC2)NC1 (configuration not stated) What is its recorded IC50?
A) 19

###

assay_target: CYP2D6 (Homo sapiens, UniProt P10635)
Sequence (P10635 whole entry): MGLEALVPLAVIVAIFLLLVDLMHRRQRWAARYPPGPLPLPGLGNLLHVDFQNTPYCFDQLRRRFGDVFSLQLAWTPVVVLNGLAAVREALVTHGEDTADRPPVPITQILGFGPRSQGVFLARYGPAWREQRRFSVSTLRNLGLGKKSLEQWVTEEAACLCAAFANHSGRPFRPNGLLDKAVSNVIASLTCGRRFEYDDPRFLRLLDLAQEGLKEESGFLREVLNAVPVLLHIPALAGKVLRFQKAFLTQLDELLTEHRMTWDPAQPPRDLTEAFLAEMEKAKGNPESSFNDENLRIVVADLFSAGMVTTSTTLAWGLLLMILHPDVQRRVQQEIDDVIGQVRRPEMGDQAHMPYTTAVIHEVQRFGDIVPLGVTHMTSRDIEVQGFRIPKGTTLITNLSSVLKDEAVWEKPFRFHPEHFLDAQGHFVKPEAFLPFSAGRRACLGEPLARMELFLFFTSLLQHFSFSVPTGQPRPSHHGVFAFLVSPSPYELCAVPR
assay_remarks: Drug metabolism assessed as human CYP2D6-mediated compound degradation by measuring half life at 5 uM up to 45 mins in presence of NADPH by LC-MS/MS analysis
Format: ADME
Measured half-life at 5 µM accompanies every entry in the list below.
Return type: number; implicit unit min.

compound	value_unit	half-life at 5 µM
C1CCC(C(CC2CCCCN2)C2CCOCC2)CC1 (centres undefined)	min	7
FC1CCC(C(CC2CCCCN2)C2CCCCC2)CC1 (centres undefined)	min	16

Attention now shifts to the item below.
Q) Please give the measured half-life at 5 µM for this compound: C1CCC(C(CC2CCCCN2)C2CCCCC2)CC1 (racemic) [PERHEXILINE]
A) 14

###

assay_target: Carnitine O-palmitoyltransferase 1, muscle isoform (Rattus norvegicus, UniProt Q63704)
assay_remarks: Inhibition of Wistar rat heart mitochondrial CPT-1 assessed as reduction in conversion of palmitoyl CoA and L-carnitine into palmitoylcarnitine preincubated for 3 mins followed by L-carnitine and palmitoyl CoA addition measured for 3.5 mins by spectrophotometric analysis
Collected IC50 values appear next to each entry.
Value expressed in µM; do not type the unit.

compound	assay_target	observed_measurement
C1CCC(C(CC2CCCCN2)C2CCCCC2)CC1.O=C(O)/C=C\C(=O)O (centres undefined) [PERHEXILINE MALEATE]	Carnitine O-palmitoyltransferase 1, muscle isoform (Rattus norvegicus, UniProt Q63704)	32
C1CCC(C(CC2CCCCN2)C2CCCC2)CC1 (centres undefined)	Carnitine O-palmitoyltransferase 1, muscle isoform (Rattus norvegicus, UniProt Q63704)	11
CC(C)(COP(=O)(O)OP(=O)(O)OC[C@H]1O[C@@H](n2cnc3c(N)ncnc32)[C@H](O)[C@@H]1OP(=O)(O)O)[C@@H](O)C(=O)NCCC(=O)NCCSC(=O)CC(=O)O	Carnitine O-palmitoyltransferase 1, muscle isoform (Rattus norvegicus, UniProt Q63704)	1.2

Now let's try a different one.
Q) Field request: IC50 | item: OC1CCC(C(CC2CCCCN2)C2CCCCC2)CC1 (centres undefined)
A) 475
